Test system: Plasmodium falciparum
EC50 strictly under 9 nM means criterion met; at 9 nM or over means criterion not met.

{"compound": "Cc1[nH]c(C(=O)NC(C)c2cnn(C)c2)c(C)c1Cc1ccc(C(F)(F)F)nc1 (stereo in doubt; form 1)", "qualitativeLabel": "criterion not met"}
{"compound": "Cc1[nH]c(C(=O)N[C@H](C)c2cn[nH]c2)c(C#N)c1Cc1ccc(C(F)(F)F)nc1 (stereo in doubt; form 2)", "qualitativeLabel": "criterion not met"}

Next item in the queue.
Request: Quick check: EC50 of Cc1c(Cc2ccc(C(F)(F)F)nc2)c[nH]c1C(=O)NC(C)c1cnn(C)c1 (racemic) under 9 nM?
Response: criterion met
